system: DRAK2; construct: gene STK17B; settings: concentration: 1 μM, replicates: in singlicate; n = 1
readout kind: %Inh (%)
API: value field is a number in %; no unit string.

Input: Lab request: please report %Inh under test system DRAK2 for CCc1nc(-c2cccc(C)c2)c(-c2ccnc(NCc3ccccc3)c2)s1;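 also: KINOMEscan kinase panel screen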
Output: 16

Input: Notebook: pull reported %Inh for DRAK2, entry CCCCCc1nc2c(N)ncnc2n1CCCCC [SKF-97255]
Output: 11

Input: Identify the measured %Inh of Cc1cccc(-c2nc(Nc3ccc4ncsc4c3)c3ccccc3n2)n1 [GW867588] for DRAK2.
Output: 0
